Tested on: S462
Test: % inhibition of CellTiter-Glo viability at highest tested concentration (72 h), relative to DMSO and benzethonium chloride controls; higher = more inhibition
ASSAY READOUT: % inhibition (%)
One number for each entry, in %.

# COMPOUND, MEASURED ON, ASSAY READOUT, REPORTED RESULT
rows = [
    ("CC1=C(/C=C/C(C)=C/C=C/C(C)=C/C(=O)O)C(C)(C)CCC1 [Tretinoin] (max concentration tested 10000 nM)", "S462", "% inhibition", 4.5),
    ("CNC(=O)c1ccc(N2C(=S)N(c3cnc(C#N)c(C(F)(F)F)c3)C(=O)C23CCC3)cc1F [ARN 509] (max concentration tested 10000 nM)", "S462", "% inhibition", 5.15),
    ("CNC(=O)c1cc(Oc2ccc(NC(=O)Nc3cc(C(C)(C)C)nn3-c3ccc4ncccc4c3)c(F)c2)ccn1 [Rebastinib] (max concentration tested 1000 nM)", "S462", "% inhibition", -0.0982),
    ("CCS(=O)(=O)c1cccc(-c2cc(C(=O)NC3CCN(C)CC3)c(C)c3[nH]c4ncc(C)cc4c23)c1 [TAK-901] (max concentration tested 1000 nM)", "S462", "% inhibition", 80.6),
]

Next compound, % inhibition to be filled in.
[Q] I am curious: what % inhibition value has been reported for CC[C@]1(O)C[C@H]2CN(CCc3c([nH]c4ccccc34)[C@@](C(=O)OC)(c3cc4c(cc3OC)N(C=O)[C@H]3[C@@](O)(C(=O)OC)[C@H](OC(C)=O)[C@]5(CC)C=CCN6CC[C@]43[C@@H]65)C2)C1 [Vincristine] (max concentration tested 1000 nM) ?
[A] 95.5

---

Kindly supply the reported % inhibition values for the records listed here.
Tested on: HSC2 (primary human Schwann cells)
Experiment: % inhibition of CellTiter-Glo viability at highest tested concentration (72 h), relative to DMSO and benzethonium chloride controls; higher = more inhibition
The number alone won't do; follow it with the unit.

A selection of reference data follows.
# MOLECULE, % inhibition
data = [
    ("N[C@@H](Cc1ccc(N(CCCl)CCCl)cc1)C(=O)O [Melphalan aq] (max concentration tested 12500 nM)", "6.78%"),
    ("C[C@@H](Oc1cc(-c2cnn(C3CCNCC3)c2)cnc1N)c1c(Cl)ccc(F)c1Cl [Crizotinib] (max concentration tested 1000 nM)", "20.8%"),
    ("CO[C@@]12[C@H](COC(N)=O)C3=C(C(=O)C(C)=C(N)C3=O)N1C[C@@H]1N[C@@H]12 [Mitomycin C] (max concentration tested 10000 nM)", "51.3%"),
    ("CN(C)c1nc(N(C)C)nc(N(C)C)n1 [Altretamine] (max concentration tested 10000 nM)", "-0.459%"),
    ("Nc1ncn([C@@H]2O[C@H](CO)[C@@H](O)[C@H]2O)c(=O)n1 [Azacitidine] (max concentration tested 10000 nM)", "68.2%"),
]

Provide reported % inhibition for each item, in the same order as listed.
1. C=CC(=O)N1CCC[C@@H](n2nc(-c3ccc(Oc4ccccc4)cc3)c3c(N)ncnc32)C1 [Ibrutinib] (max concentration tested 1000 nM)
2. O=C(Nc1cccnc1)N1CCC(Cc2cccc(Oc3ccc(C(F)(F)F)cn3)c2)CC1 [PF-3845] (max concentration tested 10000 nM)
3. CC(C)(C)c1cnc(CSc2cnc(NC(=O)C3CCNCC3)s2)o1 [SNS-032] (max concentration tested 10000 nM)
4. CC(=O)Nc1ccc(C(=O)Nc2ccccc2N)cc1 [Tacedinaline] (max concentration tested 1000 nM)

[A]
-1.15%
35.3%
86.5%
0.407%

---

Assign relative IC50 to each entry below.
System: ST8814
Test: relative IC50 (inflection point of fitted dose-response curve, CellTiter-Glo viability, 72 h; top asymptote may be below 50% inhibition); higher = less potent

The following compounds each have a reported value; give each one's relative IC50.
1. COc1ccc(C2=N[C@@H](c3ccc(Cl)cc3)[C@@H](c3ccc(Cl)cc3)N2C(=O)N2CCNC(=O)C2)c(OC(C)C)c1
2. CNC(=O)c1cc(Oc2ccc(NC(=O)Nc3cc(C(C)(C)C)nn3-c3ccc4ncccc4c3)c(F)c2)ccn1
3. O=C(c1ccc(OCCN2CCCCC2)cc1)c1c(-c2ccc(O)cc2)sc2cc(O)ccc12

[A]
["2050 nM", "> 1000 nM", "2940 nM"]

[Q] Give the measured relative IC50 of Cc1ccc(NC(=O)c2ccc(CN3CCN(C)CC3)cc2)cc1Nc1nc(-c2cccnc2)cs1 .
[A] 3230 nM

---

Hi there, I'd appreciate the recorded drug sensitivity score for every entry that follows.
Tested on: ST8814
Experiment: drug sensitivity score (DSS, CellTiter-Glo viability, 72 h) (DSS (dimensionless)); higher = more sensitive; extreme values may be limits of the assay
Answers are plain numbers.

# COMPOUND, drug sensitivity score
records = [
    ("CC(C)(C)NC(=O)[C@H]1CC[C@H]2[C@@H]3CC[C@H]4NC(=O)C=C[C@]4(C)[C@H]3CC[C@]12C [Finasteride] (max concentration tested 10000 nM)", 0),
    ("CCCC(CCC)C(=O)O [Valproic acid aq] (max concentration tested 1000000 nM)", 3.83),
    ("CN(C)CCOc1ccc(/C(=C(/CCCl)c2ccccc2)c2ccccc2)cc1 [Toremifene] (max concentration tested 10000 nM)", 1.19),
    ("COc1cc(Nc2ncc(F)c(Nc3ccc4c(n3)NC(=O)C(C)(C)O4)n2)cc(OC)c1OC [Tamatinib] (max concentration tested 10000 nM)", 0.365),
    ("CC[C@H](CO)Nc1nc(NCc2ccccc2)c2ncn(C(C)C)c2n1 [Seliciclib] (max concentration tested 10000 nM)", 0),
]

Give measured drug sensitivity score for every item shown.
1. Cc1ccc(C(=O)Nc2ccc(CN3CCN(C)CC3)c(C(F)(F)F)c2)cc1C#Cc1cnc2cccnn12 [Ponatinib] (max concentration tested 1000 nM)
2. Cc1c(C(=O)Nc2ccc(N3C[C@@H](C)O[C@@H](C)C3)nc2)cccc1-c1ccc(OC(F)(F)F)cc1 [Erismodegib] (max concentration tested 10000 nM)
3. Cn1c(=O)n(-c2ccc(C(C)(C)C#N)cc2)c2c3cc(-c4cnc5ccccc5c4)ccc3ncc21 [Dactolisib] (max concentration tested 1000 nM)
4. Nc1ccn([C@@H]2O[C@H](CO)[C@@H](O)[C@@H]2O)c(=O)n1 [Cytarabine] (max concentration tested 10000 nM)

[A]
8.31
0
14.3
12.1

---

Test system: STS26T
Assay: drug sensitivity score (DSS, CellTiter-Glo viability, 72 h) (DSS (dimensionless)); higher = more sensitive; extreme values may be limits of the assay
Rule: drug sensitivity score of 0.6 or more gives TRUE; anything lower gives FALSE.

Reference set (5 entries):
# MOLECULE, CATEGORY
records = [
    ("COc1cc2c(cc1O)CC[C@@H]1[C@@H]2CC[C@]2(C)[C@@H](O)CC[C@@H]12 [2-methoxyestradiol] (max concentration tested 10000 nM)", "TRUE"),
    ("COc1cccc2cc(-c3nc([C@H]4CC[C@H](C(=O)O)CC4)n4ncnc(N)c34)[nH]c12 [OSI-027] (max concentration tested 10000 nM)", "TRUE"),
    ("CN(c1ccccc1CNc1nc(Nc2ccc3c(c2)CC(=O)N3)ncc1C(F)(F)F)S(C)(=O)=O (max concentration tested 10000 nM)", "TRUE"),
    ("CC(=O)Nc1ccc(C(=O)Nc2ccccc2N)cc1 [Tacedinaline] (max concentration tested 1000 nM)", "FALSE"),
    ("CN1CCC(COc2cnc(-c3cccc(Cn4nc(-c5cccc(C#N)c5)ccc4=O)c3)nc2)CC1 (max concentration tested 1000 nM)", "FALSE"),
]

[Q] Say whether C[C@]12C=CC(=O)C=C1CC[C@@H]1[C@@H]2C(=O)C[C@@]2(C)[C@H]1CC[C@]2(O)C(=O)CO [Prednisone] (max concentration tested 10000 nM) shows drug sensitivity score of 0.6 or more.
[A] FALSE

[Q] For Cc1nc(C(=O)NCC(=O)O)c(O)c2ccc(Oc3ccccc3)cc12 [FG-4592] (max concentration tested 10000 nM) then?
[A] FALSE

---

What drug sensitivity score was measured for each of the following?
System: HS-Sch-2
Assay: drug sensitivity score (DSS, CellTiter-Glo viability, 72 h) (DSS (dimensionless)); higher = more sensitive; extreme values may be limits of the assay

Recorded results for 5 compounds are shown here.
# COMPOUND, drug sensitivity score
records = [
    ("CN(C)C(=O)c1cc2cnc(Nc3ccc(N4CCNCC4)cn3)nc2n1C1CCCC1 [Ribociclib] (max concentration tested 10000 nM)", 1.85),
    ("CCC(C)(C)C(=O)O[C@H]1C[C@@H](C)C=C2C=C[C@H](C)[C@H](CC[C@@H]3C[C@@H](O)CC(=O)O3)[C@H]21 [Simvastatin] (max concentration tested 10000 nM)", 0),
    ("O=C(CCCCCCC(=O)Nc1ccccc1)NO [Vorinostat] (max concentration tested 10000 nM)", 8.6),
    ("NS(=O)(=O)OC[C@@H]1C[C@@H](n2ccc3c(N[C@H]4CCc5ccccc54)ncnc32)C[C@@H]1O [Pevonedistat] (max concentration tested 10000 nM)", 28),
    ("CNc1nc(Nc2cn(C(C)(C)C#N)nc2C)ncc1C(F)(F)F [GNE-0877] (max concentration tested 1000 nM)", 0),
]

I would be grateful if you could provide drug sensitivity score for each of the following entries.
1. NC1(C(=O)N[C@@H](CCO)c2ccc(Cl)cc2)CCN(c2ncnc3[nH]ccc23)CC1 [AZD-5363] (max concentration tested 10000 nM)
2. O=C(O)c1ccc(O)c2ncccc12 [IOX-1] (max concentration tested 100000 nM)
3. Cn1cc(C2=C(c3cn(C4CCN(Cc5ccccn5)CC4)c4ccccc34)C(=O)NC2=O)c2ccccc21 [Enzastaurin] (max concentration tested 10000 nM)
4. CC(=O)Nc1ccc(C(=O)Nc2ccccc2N)cc1 [Tacedinaline] (max concentration tested 1000 nM)
5. CN1CCC(CNc2ccc3ncc(-c4cccc(OC(F)(F)F)c4)n3n2)CC1 [SGI-1776] (max concentration tested 10000 nM)
6. NC(=O)NO [Hydroxyurea] (max concentration tested 100000 nM)
7. C=CC(=O)N1CCC[C@@H](n2nc(-c3ccc(Oc4ccccc4)cc3)c3c(N)ncnc32)C1 [Ibrutinib] (max concentration tested 1000 nM)
8. CC(C)Nc1cc(-c2c[nH]c(C(=O)N[C@H](CO)c3cccc(Cl)c3)c2)c(Cl)cn1 [Ulixertinib] (max concentration tested 10000 nM)

[A]
1. 3.33
2. 0.26
3. 0.28
4. 0
5. 7.09
6. 0.56
7. 0
8. 6.76
